# SYSTEM_TESTED: SIRT1 (Homo sapiens, UniProt Q96EB6)
# METHOD_SUMMARY: Trp mass spectrometry assay of SIRT1 activity
# Type: biochemical
# TEST_CONDITIONS: percent maximum fold activation of SIRT1; Trp peptide substrate; read-out: Trp % Fold Act
Below, each entry is listed with its recorded Emax.

| COMPOUND | Emax |
| --- | --- |
| CS(=O)(=O)c1ccccc1-c1ccc2ncc(C(=O)Nc3ccnc(N4CCC4)c3)n2n1 [Compound 186] | < 350% |
| O=C(Nc1nc(CN2CCOCC2)cs1)c1cnc2ccc(-c3cccc(F)c3)nn12 [Compound 29] | < 350% |
| O=C(Nc1ccccn1)c1cnc2ccc(-c3cccc(OC(F)(F)F)c3)nn12 [Compound 8] | < 350% |
| O=C(Nc1cncc(F)c1)c1cnn2ccc(N3CCC[C@@H]3C(F)(F)F)nc12 [Compound 1089] | < 350% |
| Cc1nc2ccc(-c3ccccc3C(F)(F)F)nn2c1C(=O)Nc1cccc(N2CCOCC2)n1 [Compound 71] | ≥ 350% |
| O=C(Nc1cccnc1)c1cnn2ccc(N3CCCC(C(F)(F)F)C3)nc12 (centres unmarked) [Compound 1007] | ≥ 350% |
| Cc1nc(NC(=O)c2cnn3ccc(N4CCCC4C)nc23)sc1C (centres unmarked) [Compound 1038] | < 350% |
| Cc1nn2ccc(N3CCC[C@@H]3C(F)(F)F)nc2c1C(=O)Nc1cccc(-c2cnco2)n1 [Compound 1086] | ≥ 350% |
| O=C(Nc1cnc2c(c1)COCC2)c1cnc2ccc(N3CCCC3C(F)(F)F)nn12 (centres unmarked) [Compound 1095] | ≥ 350% |
| Cc1cncc(NC(=O)c2cnc3ccc(N4CCC[C@@H]4C)nn23)c1 [Compound 1058] | < 350% |
| O=C(Nc1cccnc1)c1cnn2ccc(N3CCC(C(F)(F)F)CC3)nc12 [Compound 1066] | ≥ 350% |
| Cn1cc2ccc(NC(=O)c3cnc4ccc(N5CCCC5C(F)(F)F)nn34)cc2n1 (centres unmarked) [Compound 1092] | ≥ 350% |
| O=C(Nc1cc(-c2cnco2)ccn1)c1cnn2ccc(N3CCC[C@@H]3C(F)(F)F)nc12 [Compound 1091] | ≥ 350% |
| Cc1nn2ccc(N3CCC[C@@H]3C(F)(F)F)nc2c1C(=O)Nc1ccncn1 [Compound 1068] | ≥ 350% |
| O=C(Nc1ccccn1)c1cnn2ccc(N3CCC[C@@H]3C(F)(F)F)nc12 [Compound 1090] | < 350% |
| Cc1nn2ccc(N3CCC[C@@H]3C(F)(F)F)nc2c1C(=O)Nc1cc(-c2cnco2)ccn1 [Compound 1087] | ≥ 350% |
| O=C(Nc1ccnc(N2CCC2)c1)c1cnc2ccc(-c3cccc(Cl)c3F)nn12 [Compound 159] | < 350% |

###

# SYSTEM_TESTED: SIRT1 (Homo sapiens, UniProt Q96EB6)
# METHOD_SUMMARY: Trp mass spectrometry assay of SIRT1 activity
# Type: biochemical
# TEST_CONDITIONS: Trp assay; concentration giving 150% activation of SIRT1
READOUT_NAME: Trp EC1.5 (μM)

| MOLECULE | READOUT_NAME | ASSAY_VALUE |
| --- | --- | --- |
| O=C(Nc1cnn2ccc(-c3ccccc3C(F)(F)F)nc12)c1cscn1 | Trp EC1.5 (μM) | C (EC1.5>25 μM) |
| Cc1nc2ccc(N3CC[C@H](N(C)C)C3)nn2c1C(=O)Nc1cccnc1 | Trp EC1.5 (μM) | B (EC1.5 1-25 μM) |
| CN(C)c1ccnc(NC(=O)c2cnc3ccc(-c4cccc(OC[C@H](O)CO)c4)nn23)c1 | Trp EC1.5 (μM) | B (EC1.5 1-25 μM) |
| Cc1ccc(NC(=O)c2c(C)nc3ccc(-c4ccccc4C)nn23)nn1 | Trp EC1.5 (μM) | B (EC1.5 1-25 μM) |
| O=C(Nc1ccncc1F)c1cnc2ccc(N3CCCC3)nn12 | Trp EC1.5 (μM) | C (EC1.5>25 μM) |
| O=C(Nc1cnn2ccc(-c3ccccc3OC(F)(F)F)nc12)c1cc(O)ncn1 | Trp EC1.5 (μM) | C (EC1.5>25 μM) |
| O=C(Nc1cncnc1)c1cnc2ccc(N3CC[C@H](F)C3)nn12 | Trp EC1.5 (μM) | C (EC1.5>25 μM) |
| COCCOc1nccc(NC(=O)c2cnc3ccc(-c4ccccc4C(F)(F)F)nn23)n1 | Trp EC1.5 (μM) | A (EC1.5<1 μM) |
| Cc1cc(NC(=O)c2cnc3ccc(-c4ccccc4OC(F)(F)F)nn23)ccn1 | Trp EC1.5 (μM) | A (EC1.5<1 μM) |
| O=C(Nc1ccncn1)c1cnc2ccc(-c3ccccc3OC(F)(F)F)nn12 | Trp EC1.5 (μM) | B (EC1.5 1-25 μM) |
| O=C(Nc1cnc2ccc(-c3ccccc3OC(F)(F)F)nn12)c1cccc(OCC(O)CO)n1 (centres unmarked) | Trp EC1.5 (μM) | A (EC1.5<1 μM) |
| Cc1nc2ccc(-c3cccc(F)c3)nn2c1C(=O)Nc1cccnn1 | Trp EC1.5 (μM) | A (EC1.5<1 μM) |
| Cc1nc2c(OC[C@H](O)CO)cc(-c3ccccc3C(F)(F)F)nn2c1C(=O)Nc1cccnn1 | Trp EC1.5 (μM) | A (EC1.5<1 μM) |
| Cc1cccc(NC(=O)c2c(C)nc3c(OC[C@H](O)CO)cc(-c4ccccc4C(F)(F)F)nn23)n1 | Trp EC1.5 (μM) | A (EC1.5<1 μM) |
| Cc1nc2ccc(N3CC[C@H](N(C)C)C3)nn2c1C(=O)Nc1ccncn1 | Trp EC1.5 (μM) | C (EC1.5>25 μM) |
| Cc1cc2ncc(C(=O)Nc3ccncc3)n2nc1-c1ccccc1C(F)(F)F | Trp EC1.5 (μM) | B (EC1.5 1-25 μM) |
| Cc1cccc(NC(=O)c2cnc3ccc(-c4cccc(OC[C@H](O)CO)c4)nn23)n1 | Trp EC1.5 (μM) | A (EC1.5<1 μM) |

###

# SYSTEM_TESTED: SIRT1 (Homo sapiens)
# METHOD_SUMMARY: Trp mass spectrometry assay of SIRT1 activity
# Type: biochemical
# TEST_CONDITIONS: Trp peptide substrate; concentration giving 150% activation of SIRT1

| COMPOUND | Trp EC1.5 |
| --- | --- |
| O=C(Nc1cccnc1)c1cnn2ccc(-c3ccccc3OC(F)(F)F)nc12 | A (EC1.5<1 μM) |
| Cc1cc(-c2ccccc2C(F)(F)F)nn2c(NC(=O)c3cccc(OCC(O)CO)n3)cnc12 (centres unmarked) | A (EC1.5<1 μM) |
| Cc1cc(-c2ccccc2C(F)(F)F)nn2c(NC(=O)c3ccccn3)cnc12 | B (EC1.5 1-25 μM) |
| COc1cccc(NC(=O)c2cnn3ccc(-c4ccccc4OC(F)(F)F)nc23)n1 | A (EC1.5<1 μM) |
| Cc1nn2ccc(-c3ccccc3C(F)(F)F)nc2c1NC(=O)c1cccc(N2CCOCC2)n1 | B (EC1.5 1-25 μM) |
| Cc1cccc(NC(=O)c2c(C)nc3c(C)cc(-c4ccccc4OC(F)(F)F)nn23)n1 | B (EC1.5 1-25 μM) |
| Cc1c(-c2ccccc2C(F)(F)F)nn2c(NC(=O)c3cccc(N4CCCC4)n3)cnc2c1C | A (EC1.5<1 μM) |

###

# SYSTEM_TESTED: SIRT1 (Homo sapiens, UniProt Q96EB6)
# Sequence (Q96EB6 1-747): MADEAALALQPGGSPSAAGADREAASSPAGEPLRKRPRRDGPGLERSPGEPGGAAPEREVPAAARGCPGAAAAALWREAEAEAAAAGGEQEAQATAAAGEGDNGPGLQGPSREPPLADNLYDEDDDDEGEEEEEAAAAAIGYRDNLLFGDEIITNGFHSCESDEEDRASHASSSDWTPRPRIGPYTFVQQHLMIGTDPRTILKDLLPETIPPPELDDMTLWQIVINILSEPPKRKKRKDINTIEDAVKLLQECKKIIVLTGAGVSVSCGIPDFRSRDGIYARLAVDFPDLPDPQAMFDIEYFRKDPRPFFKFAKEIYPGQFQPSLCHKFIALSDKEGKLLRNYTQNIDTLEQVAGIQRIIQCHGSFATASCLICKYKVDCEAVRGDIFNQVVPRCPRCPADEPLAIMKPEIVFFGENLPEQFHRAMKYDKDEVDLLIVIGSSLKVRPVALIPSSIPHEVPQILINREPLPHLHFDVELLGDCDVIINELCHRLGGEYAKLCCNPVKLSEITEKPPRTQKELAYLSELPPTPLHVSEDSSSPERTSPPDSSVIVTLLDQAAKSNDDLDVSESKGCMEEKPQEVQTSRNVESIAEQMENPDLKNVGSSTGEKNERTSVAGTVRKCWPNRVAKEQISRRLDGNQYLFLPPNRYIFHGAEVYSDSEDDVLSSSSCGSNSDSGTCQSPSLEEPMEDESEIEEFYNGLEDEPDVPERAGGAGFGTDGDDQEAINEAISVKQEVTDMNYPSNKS
# METHOD_SUMMARY: TAMRA based mass spectrometry assay of SIRT1 activity
# Format: biochemical
# TEST_CONDITIONS: concentration of test compound giving 150% activation of SIRT1; TAMRA peptide substrate

| COMPOUND | TAMRA EC1.5 (μM) |
| --- | --- |
| O=C(Nc1ccnc(CN2CCOCC2)n1)c1cnc2ccc(-c3ccccc3C(F)(F)F)nn12 [Compound 23] | B (EC1.5 1-25 μM) |
| O=C(Nc1cnc2ccc(-c3ccccc3C(F)(F)F)nn12)c1cncc(N2CCOCC2)n1 [Compound 120] | A (EC1.5<1 μM) |
| O=C(Nc1nccs1)c1cnc2ccc(-c3cccc(N4CCOCC4)c3)nn12 [Compound 9] | C (EC1.5>25 μM) |
| CS(=O)(=O)c1ccccc1-c1ccc2ncc(C(=O)Nc3cccnc3)n2n1 [Compound 189] | C (EC1.5>25 μM) |
| CS(=O)(=O)c1ccccc1-c1ccc2ncc(C(=O)Nc3ccnc(N4CCC4)c3)n2n1 [Compound 186] | B (EC1.5 1-25 μM) |
| O=C(Nc1ccccn1)c1cnc2ccc(-c3ccccc3OC(F)(F)F)nn12 [Compound 14] | A (EC1.5<1 μM) |
| O=C(Nc1cccnc1)c1cnc2ccc(-c3cccc(C(F)(F)F)c3)nn12 [Compound 2] | B (EC1.5 1-25 μM) |
| O=C(Nc1cccc(CN2CCOCC2)n1)c1cnc2ccc(-c3ccccc3C(F)F)nn12 [Compound 34] | A (EC1.5<1 μM) |
